Reference source for all entries: patent US5968791A

systemTested: coconut LPAAT (Cocos nucifera)
Sequence (Q42670 1-308): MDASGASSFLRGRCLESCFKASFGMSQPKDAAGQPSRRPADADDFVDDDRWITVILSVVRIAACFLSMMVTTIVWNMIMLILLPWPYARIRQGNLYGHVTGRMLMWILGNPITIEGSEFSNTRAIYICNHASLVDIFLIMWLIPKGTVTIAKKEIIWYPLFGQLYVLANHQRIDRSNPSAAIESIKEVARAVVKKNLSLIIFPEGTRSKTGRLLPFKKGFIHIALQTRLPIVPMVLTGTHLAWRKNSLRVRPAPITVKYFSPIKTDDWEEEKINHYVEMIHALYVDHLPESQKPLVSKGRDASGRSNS
measurementProtocol: LPAAT activity assay, coconut P2 membrane preparation
Assay type: biochemical
Parameters: white endosperm tissue lining the inside of the endocarp can be dissected and collected; from tissue; host or cells: immature coconut endosperm, P2 membrane fraction
protocolConditions: P2 membrane preparation; acyl-CoA donor varied, acceptor 12:0-LPA

| compound | LPAAT Activity from Coconut |
| --- | --- |
| CCCCCCCCCC(=O)SCCNC(=O)CCNC(=O)[C@H](O)C(C)(C)COP(=O)(O)OP(=O)(O)OC[C@H]1O[C@@H](n2cnc3c(N)ncnc32)[C@H](O)[C@@H]1OP(=O)(O)O [10:0] | 43 pmol PA formed/30 min assay |
| CCCCCCCC(=O)SCCNC(=O)CCNC(=O)[C@H](O)C(C)(C)COP(=O)(O)OP(=O)(O)OC[C@H]1O[C@@H](n2cnc3c(N)ncnc32)[C@H](O)[C@@H]1OP(=O)(O)O [8:0] | 6 pmol PA formed/30 min assay |
| CCCCCCCCCCCCCCCCCC(=O)SCCNC(=O)CCNC(=O)[C@H](O)C(C)(C)COP(=O)(O)OP(=O)(O)OC[C@H]1O[C@@H](n2cnc3c(N)ncnc32)[C@H](O)[C@@H]1OP(=O)(O)O [18:0] | 13 pmol PA formed/30 min assay |

---

systemTested: LPAAT of transformant 5511-5 (Cocos nucifera, UniProt Q42670)
Construct: crude P2 membranes, host LPAAT also present
measurementProtocol: LPAAT acyl-CoA specificity, P2 preparation of LPAAT-transformed line 5511-5
Assay type: biochemical, Rapeseed
protocolConditions: acyl-CoA donor varied at 5 μM, acceptor 12:0-LPA; 30 minute reaction
Reported Cpm PA Product, 5511-5 is given for each of the following compounds.
attributeMeasured: Cpm PA Product, 5511-5 (Cpm)

| compound | numericValue |
| --- | --- |
| CCCCCCCCCCCCCCCC(=O)SCCNC(=O)CCNC(=O)[C@H](O)C(C)(C)COP(=O)(O)OP(=O)(O)OC[C@H]1O[C@@H](n2cnc3c(N)ncnc32)[C@H](O)[C@@H]1OP(=O)(O)O [16:0] | 4569 |
| CCCCCCCCCC(=O)SCCNC(=O)CCNC(=O)[C@H](O)C(C)(C)COP(=O)(O)OP(=O)(O)OC[C@H]1O[C@@H](n2cnc3c(N)ncnc32)[C@H](O)[C@@H]1OP(=O)(O)O [10:0] | 5648 |
| CCCCCCCCCCCCCC(=O)SCCNC(=O)CCNC(=O)[C@H](O)C(C)(C)COP(=O)(O)OP(=O)(O)OC[C@H]1O[C@@H](n2cnc3c(N)ncnc32)[C@H](O)[C@@H]1OP(=O)(O)O [14:0] | 5080 |
